Source listed as patent US20150065717A1.

- target: recombinant human sEH (Homo sapiens, UniProt P34913)
- Construct: purchased Cayman
- Sequence (P34913 whole entry): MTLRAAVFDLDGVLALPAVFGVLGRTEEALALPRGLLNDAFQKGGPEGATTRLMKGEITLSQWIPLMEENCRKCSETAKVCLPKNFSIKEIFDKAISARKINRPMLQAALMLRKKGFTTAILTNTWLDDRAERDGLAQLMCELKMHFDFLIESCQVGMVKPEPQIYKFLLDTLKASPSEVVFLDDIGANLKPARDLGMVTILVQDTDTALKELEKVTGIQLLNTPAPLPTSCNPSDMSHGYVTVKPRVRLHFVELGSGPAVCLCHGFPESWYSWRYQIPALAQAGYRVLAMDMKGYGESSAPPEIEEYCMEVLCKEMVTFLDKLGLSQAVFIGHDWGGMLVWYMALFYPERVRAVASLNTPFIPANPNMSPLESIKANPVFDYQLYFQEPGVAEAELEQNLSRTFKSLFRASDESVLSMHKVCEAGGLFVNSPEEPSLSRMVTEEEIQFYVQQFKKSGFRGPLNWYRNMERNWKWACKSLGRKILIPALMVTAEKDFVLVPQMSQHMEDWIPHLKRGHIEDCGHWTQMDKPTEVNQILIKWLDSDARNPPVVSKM
- assay.overview: In vitro evaluation test for sEH inhibitory activity
- Format: biochemical
- condition.info: recombinant human sEH 0.026 μg/mL, fluorescent substrate 6.25 μmol/L, room temperature
recorded.metric: log10 of IC50 (log10 of the value in nM)
Parameter value (number): base-10 log of IC50 in nM.

[[record]]
chem_smiles = "CC(=O)NC1(C(=O)N2CCC[C@@H](C(=O)NCc3ccc(C#N)cc3OC(F)(F)F)C2)CCC1"
reported_value = 0.79

[[record]]
chem_smiles = "CS(=O)(=O)NC1(C(=O)N2CCC[C@@H](C(=O)NCc3ccc(C#N)cc3OC(F)(F)F)C2)CCC1"
reported_value = 0.00

[[record]]
chem_smiles = "CCC(=O)N[C@@H](C(=O)N1CCC[C@@H](C(=O)NCc2ccc(C#N)cc2OC(F)(F)F)C1)C(C)(C)O"
reported_value = 0.11


Incoming: Param item = CCS(=O)(=O)NC1(C(=O)N2CCC[C@@H](C(=O)NCc3ccc(C#N)cc3OC(F)(F)F)C2)CC1 ; retrieve measured log10 of IC50.
Outgoing: 0.15

Incoming: Repeat with CCC(=O)NC1(C(=O)N2CCC[C@@H](C(=O)NCc3ccc(C#N)cc3OC(F)(F)F)C2)CCC1
Outgoing: 0.04

Incoming: Likewise for CC(=O)N[C@@H](C(=O)N1CCC[C@@H](C(=O)NCc2ccc(C#N)cc2OC(F)(F)F)C1)C(C)C ?
Outgoing: -0.30

Incoming: Follow-up item: CCC(=O)N[C@@H](C(=O)N1CCC[C@@H](C(=O)NCc2ccc(Cl)cc2Cl)C1)C(C)(C)O
Outgoing: -0.15

----------
Parameter: pIC50. Scope: all listed entries.
- target: recombinant human sEH (Homo sapiens)
- assay.overview: In vitro evaluation test for sEH inhibitory activity
- condition.info: recombinant human sEH 0.026 μg/mL, fluorescent substrate 6.25 μmol/L, room temperature
FYI, pIC50 means -log10 of a concentration in mol per litre.

Answered cases to consult:
[[record]]
chem_smiles = "N#Cc1ccc(CNC(=O)[C@@H]2CCCN(C(=O)C3(NC(=O)CC4CC4)CCC3)C2)c(OC(F)(F)F)c1"
reported_value = 9.10

[[record]]
chem_smiles = "CC(C)(CO)C(=O)N1CCC[C@@H](C(=O)NCc2ccc(C#N)cc2OC(F)(F)F)C1"
reported_value = 8.89

[[record]]
chem_smiles = "CS(=O)(=O)NC1(C(=O)N2CCC[C@@H](C(=O)NCc3ccc(C#N)cc3OC(F)(F)F)C2)CCOCC1"
reported_value = 8.64

[[record]]
chem_smiles = "N#Cc1ccc(CNC(=O)[C@@H]2CCCN(C(=O)C3(C#N)CC3)C2)c(OC(F)(F)F)c1"
reported_value = 8.74

[[record]]
chem_smiles = "CC(C)(C)C(=O)N1CCC[C@@H](C(=O)NCc2ccc(C#N)cc2OC(F)(F)F)C1"
reported_value = 8.96

[[record]]
chem_smiles = "O=C(NCc1ccc(Cl)cc1Cl)[C@@H]1CCCN(C(=O)C2(O)CCCCC2)C1"
reported_value = 8.68


Incoming: Returns the measured pIC50 for the input molecule. Input: C[C@@H](O)C(=O)N1CCC[C@@H](C(=O)NCc2ccc(C#N)cc2OC(F)(F)F)C1
Outgoing: 8.46

Incoming: Now the molecule CC(C)(O)[C@@H](NS(C)(=O)=O)C(=O)N1CCC[C@@H](C(=O)NCc2ccc(C#N)cc2OC(F)(F)F)C1
Outgoing: 9.00

Incoming: Next record, please: CC(C)[C@@H](NS(C)(=O)=O)C(=O)N1CCC[C@@H](C(=O)NCc2ccc(C#N)cc2OC(F)(F)F)C1
Outgoing: 9.52

Incoming: Would you mind doing CC(C)(O)[C@@H](NS(C)(=O)=O)C(=O)N1CCC[C@@H](C(=O)NCc2ccc(Cl)cc2Cl)C1 as well?
Outgoing: 8.96

Incoming: Now try CC(C)(O)C(=O)N1CCC[C@@H](C(=O)NCc2ccc(C#N)cc2OC(F)(F)F)C1 .
Outgoing: 8.62

Incoming: // repeat for C[C@@H](NS(C)(=O)=O)C(=O)N1CCC[C@@H](C(=O)NCc2ccc(C#N)cc2OC(F)(F)F)C1 and report
Outgoing: 8.74

Incoming: Field entry: CCCC(=O)NC1(C(=O)N2CCC[C@@H](C(=O)NCc3ccc(C#N)cc3OC(F)(F)F)C2)CCC1
Outgoing: 8.62

Incoming: Same thing, different molecule: CS(=O)(=O)NC1(C(=O)N2CCC[C@@H](C(=O)NCc3ccc(C(N)=O)cc3OC(F)(F)F)C2)CC1
Outgoing: 8.72
